- Tested on: Pseudomonas aeruginosa
- Protocol text: microbe, parasite or virus in culture
- Cond: ATCC 27853, 18 h, ASSAY_TEST Inhibition of Bacterial Growth, detection method Absorption (OD600), MEDIA CAMHB, plate type 384well, NBS, CORNING #3640
- Description: Antibacterial activity against Pseudomonas aeruginosa ATCC 27853 (CO-ADD:GN_042); MIC in CAMBH media using NBS plates, by OD(600)
Provide the recorded MIC for the entries that follow.

What measured MIC goes with C=C(NC(=O)C(=C)NC(=O)c1csc(C2=NC3c4csc(n4)C4NC(=O)c5csc(n5)C(C(C)(O)C(C)O)NC(=O)C5CSC(=N5)/C(=C/C)NC(=O)C(C(C)O)NC(=O)c5csc(n5)C3(CC2)NC(=O)C(C)NC(=O)C(=C)NC(=O)C(=C)NC(=O)C(C(C)C)NC2C=Cc3c(C(C)O)cc(nc3C2O)C(=O)OC4C)n1)C(N)=O (stereo not drawn) ?
> 10 µM

What measured MIC goes with "CO[C@H](/C(C)=C/C=C/C(C)=C/c1coc(C)n1)[C@H](C)[C@H]1C[C@@H](O)[C@@]2(C)O[C@H]2/C=C/[C@@H](C)[C@@H]2C[C@@H](CC(=O)O2)C[C@H]2O[C@@H]2C(=O)O1" ?
> 10 µM

What measured MIC goes with CC1OC(CC(=O)O)CC2=C1C(=O)c1c(O)cccc1C2=O (stereo not drawn) ?
> 10 µM
